System: L1210
Test: Cytotoxicity against mouse L1210 cells after 24 hrs by MTT assay
Format: functional, cell-based
Settings: L1210, 24 h
METRIC NAME: IC50 (pM)
// units = pM; emit number, no label

# input Reported IC50 for `COc1cc2[nH]c(C(=O)N3C[C@H]4C[C@@]45C3=CC(=O)c3[nH]c(C(=O)N4CCc6c4c(O)c(OC)c4[nH]c(C(=O)SC)cc64)cc35)cc2cc1O` : what is it?
# output 5

---

Tested on: LNCaP
Experiment: Cytotoxicity against human LNCAP cells assessed as inhibition of cell proliferation by MTS assay
Assay type: functional, cell-based
METRIC NAME: pIC50
pIC50 here is simply -log10 of the concentration when that concentration is written in mol/L.

# input Return pIC50 measured with LNCaP given this compound: CN(C)CCOc1ccc2[nH]c(C(=O)N3CC(CCl)c4c3cc(NC(=O)OC(C)(C)C)c3ccccc43)cc2c1 (configuration not stated)
# output 6.66

Turning now to a further compound:
# input Return pIC50 measured with LNCaP given this compound: CN(C)CCOc1ccc2[nH]c(C(=O)N3CC(CCl)c4c3cc(N)c3ccccc43)cc2c1 (configuration not stated)
# output 7.74
